Examples of molecules with documented CC50 follow.
Test system: ACHN
assayOverview: Growth inhibition of human ACHN cells incubated for 48 hrs by sulforhodamine B assay
Format: functional
statedConditions: read-out: LC50 (the source's name)
attributeMeasured: CC50

COc1ccc(C(=O)/C=C/c2cccc(Nc3ccnc4cc(Cl)ccc34)c2)cc1
> 100 µM
COc1ccc(C2=NN(C=O)C(c3cccc(Nc4ccnc5cc(Cl)ccc45)c3)C2)cc1 (stereo not drawn)
> 100 µM
O=CN1N=C(c2ccc(Cl)cc2)CC1c1cccc(Nc2ccnc3cc(Cl)ccc23)c1 (stereo not drawn)
> 100 µM

###

Examples of compounds with documented inhibition of growth at 7.8 µg/mL follow.
System: Candida albicans
assayOverview: Growth inhibition of Candida albicans ATCC 10231 at 7.8 ug/ml incubated for 48 hrs under dark condition by broth microdilution method relative to control
Format: functional
statedConditions: ATCC 10231, 48 h, read-out: GI
attributeMeasured: inhibition of growth at 7.8 µg/mL (%)

COc1ccc(C2=NN(c3ccccc3)C(c3cccc(Nc4ccnc5cc(Cl)ccc45)c3)C2)cc1 (stereo unspecified)
7.57
O=C(/C=C/c1cccc(Nc2ccnc3cc(Cl)ccc23)c1)c1ccccc1
25.2
Cc1ccc(C(=O)/C=C/c2cccc(Nc3ccnc4cc(Cl)ccc34)c2)cc1
30.6
COc1ccc(C2=NN(c3ccc(Cl)cc3)C(c3cccc(Nc4ccnc5cc(Cl)ccc45)c3)C2)cc1 (stereo unspecified)
0
Clc1cc(Cl)cc(N2N=C(c3ccccc3)CC2c2cccc(Nc3ccnc4cc(Cl)ccc34)c2)c1 (stereo unspecified)
0
COc1cc(C2=NN(c3ccc(Cl)cc3)C(c3cccc(Nc4ccnc5cc(Cl)ccc45)c3)C2)cc(OC)c1OC (stereo unspecified)
4.21
Clc1ccc2c(Nc3cccc(C4CC(c5ccc(Br)cc5)=NN4c4ccccc4)c3)ccnc2c1 (stereo unspecified)
4.31
CC(=O)N1N=C(c2ccc(Cl)cc2)CC1c1cccc(Nc2ccnc3cc(Cl)ccc23)c1 (stereo unspecified)
19.6
COc1cc(C2=NN(c3ccccc3)C(c3cccc(Nc4ccnc5cc(Cl)ccc45)c3)C2)cc(OC)c1OC (stereo unspecified)
6.63
COc1ccc(C2=NN(C=O)C(c3cccc(Nc4ccnc5cc(Cl)ccc45)c3)C2)cc1 (stereo unspecified)
7.43
COc1cc(C2=NN(C=O)C(c3cccc(Nc4ccnc5cc(Cl)ccc45)c3)C2)cc(OC)c1OC (stereo unspecified)
5.72

These measurements were taken from ChEMBL document CHEMBL4038284.
